Can you tell me IRF reporter for the items I'm about to list?
test system: RAW-Dual (murine macrophage reporter line); test: IRF reporter (Lucia luciferase) activity fold change vs agonist alone; higher = enhanced IRF activity; conditions: modulator concentration 10 µM; agonist: LPS 0.1 ug/mL
// no unit, no text: just the number

The compound Cc1cc(O)nc(NN)n1 , when measured on RAW-Dual (murine macrophage reporter line), yielded IRF reporter of 0.971

RAW-Dual (murine macrophage reporter line) data for CNCC[C@@H](Oc1cccc2ccccc12)c1cccs1 ; its IRF reporter: 1.11

Record CCOC(=O)C1=C(C)OC(N)=C(C#N)C1c1cc(C)c(OC)cc1C (configuration not stated) / RAW-Dual (murine macrophage reporter line), IRF reporter recorded as 0.987

Record CCS(=O)(=O)N1CCC(Oc2cc(C)nc(C)n2)CC1 ; system RAW-Dual (murine macrophage reporter line); IRF reporter = 1.05

// compound CC(C)(C)c1nc(-c2cccc(NS(=O)(=O)c3c(F)cccc3F)c2F)c(-c2ccnc(N)n2)s1 , assay RAW-Dual (murine macrophage reporter line), IRF reporter value: 0.818

RAW-Dual (murine macrophage reporter line) assay, compound OCc1ccccc1OC1OC(CO)C(O)C(O)C1O (configuration not stated) , recorded IRF reporter = 1.22

Record O=C1OC(CNS(=O)(=O)c2ccccc2Cl)CN1c1ccc(Cl)c(Cl)c1 (configuration not stated) ; system RAW-Dual (murine macrophage reporter line); IRF reporter = 1.11
